B1: SMARCE1 (parent)
chain: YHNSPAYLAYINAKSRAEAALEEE

Variants of: B1
Assay: protein stability index of a GFP-peptide fusion (GPS, HEK-293T) (PSI 1-6); higher = more stable;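 also: lentivirally expressed fusions sorted by FACS into six bins by GFP to DsRed ratio, PSI derived from sequencing read proportions per bin multiplied by bin number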
Conditions: c terminus: a fixed tail appended
Threshold check on protein stability index: at or above 2 gives YES, strictly below gives NO.

[
  {
    "sequence_content": "YHNSPAYLAYINAKSCAEAALEEE [R16C]",
    "qualitative_label": "YES"
  },
  {
    "sequence_content": "YHNSPAYLAYINAKSRAEAFLEEE [A20F]",
    "qualitative_label": "NO"
  },
  {
    "sequence_content": "YHNSPAYLAYINAISRAEAALEEE [K14I]",
    "qualitative_label": "YES"
  },
  {
    "sequence_content": "YHNSPAYLDYINAKSRAEAALEEE [A9D]",
    "qualitative_label": "NO"
  },
  {
    "sequence_content": "YHNSPAYLAKINAKSRAEAALEEE [Y10K]",
    "qualitative_label": "YES"
  },
  {
    "sequence_content": "YHNSPAYLAYINAKSRNEAALEEE [A17N]",
    "qualitative_label": "YES"
  },
  {
    "sequence_content": "YHNSPAYLHYINAKSRAEAALEEE [A9H]",
    "qualitative_label": "YES"
  },
  {
    "sequence_content": "YHNSPAYLAYINAKSRAETALEEE [A19T]",
    "qualitative_label": "YES"
  },
  {
    "sequence_content": "YHNSPAYLAIINAKSRAEAALEEE [Y10I]",
    "qualitative_label": "YES"
  },
  {
    "sequence_content": "AHNSPAYLAYINAKSRAEAALEEE [Y1A]",
    "qualitative_label": "YES"
  },
  {
    "sequence_content": "YHNSPAYLAYINAKSGAEAALEEE [R16G]",
    "qualitative_label": "NO"
  },
  {
    "sequence_content": "YHNSPAYLASINAKSRAEAALEEE [Y10S]",
    "qualitative_label": "YES"
  },
  {
    "sequence_content": "YHNSPAYLAYINAKCRAEAALEEE [S15C]",
    "qualitative_label": "YES"
  },
  {
    "sequence_content": "YHNSPAYLAYINAKSRAEGALEEE [A19G]",
    "qualitative_label": "YES"
  },
  {
    "sequence_content": "YHNSPAYLAYINAYSRAEAALEEE [K14Y]",
    "qualitative_label": "YES"
  },
  {
    "sequence_content": "YHNSPAYLAYINAKSRAEAAFEEE [L21F]",
    "qualitative_label": "YES"
  },
  {
    "sequence_content": "YHNSPAYLAYINAKSRAEMALEEE [A19M]",
    "qualitative_label": "YES"
  },
  {
    "sequence_content": "YHNSPAYLAYINAKSRAEAALEAE [E23A]",
    "qualitative_label": "YES"
  },
  {
    "sequence_content": "YHNSPAYLAYINAKLRAEAALEEE [S15L]",
    "qualitative_label": "YES"
  },
  {
    "sequence_content": "YHNSPAYLAYINAKSRAEAAIEEE [L21I]",
    "qualitative_label": "YES"
  },
  {
    "sequence_content": "YHNSPLYLAYINAKSRAEAALEEE [A6L]",
    "qualitative_label": "NO"
  },
  {
    "sequence_content": "YHNSPAYLAYINAKSRAEAALEER [E24R]",
    "qualitative_label": "YES"
  },
  {
    "sequence_content": "YHNSPAYLAYINAKSRAEAALEEL [E24L]",
    "qualitative_label": "NO"
  },
  {
    "sequence_content": "YHNSPAYLAYIGAKSRAEAALEEE [N12G]",
    "qualitative_label": "NO"
  },
  {
    "sequence_content": "YHNSPAYLAYINAKSRAENALEEE [A19N]",
    "qualitative_label": "YES"
  },
  {
    "sequence_content": "YHNSPAMLAYINAKSRAEAALEEE [Y7M]",
    "qualitative_label": "YES"
  },
  {
    "sequence_content": "YHNSPAALAYINAKSRAEAALEEE [Y7A]",
    "qualitative_label": "YES"
  },
  {
    "sequence_content": "YHNSPAYLAYINAKKRAEAALEEE [S15K]",
    "qualitative_label": "YES"
  },
  {
    "sequence_content": "YHNSFAYLAYINAKSRAEAALEEE [P5F]",
    "qualitative_label": "YES"
  }
]
